Taken from paper PMC4081100.

- system.name: GST-ANAC092(1-176) (Arabidopsis thaliana, UniProt Q9FKA0 1-176)
- Sequence: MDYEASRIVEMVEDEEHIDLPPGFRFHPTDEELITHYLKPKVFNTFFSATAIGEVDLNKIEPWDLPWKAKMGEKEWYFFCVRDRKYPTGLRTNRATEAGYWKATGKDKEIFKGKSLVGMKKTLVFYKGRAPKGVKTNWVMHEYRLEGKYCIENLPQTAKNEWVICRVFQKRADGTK
- measurement.notes: universal protein binding microarray (PBM); transcription factors of Arabidopsis thaliana; high values mean tight binding
- condition.notes: protein: recombinant; tags: GST; chain copies: 2; dsDNA, one strand shown
quantity: binding signal
Please answer in the form of a number followed by its unit of measurement.

input: Checklist item: binding signal tested on GST-ANAC092(1-176) (Arabidopsis thaliana, UniProt Q9FKA0 1-176), entry AGGGAAAG , value?
output: 0.0861 E-score

input: Checklist item: binding signal tested on GST-ANAC092(1-176) (Arabidopsis thaliana, UniProt Q9FKA0 1-176), entry GTACGCCA , value?
output: 0.379 E-score

input: Checklist item: binding signal tested on GST-ANAC092(1-176) (Arabidopsis thaliana, UniProt Q9FKA0 1-176), entry TCACGTCA , value?
output: 0.429 E-score

input: Checklist item: binding signal tested on GST-ANAC092(1-176) (Arabidopsis thaliana, UniProt Q9FKA0 1-176), entry AGAGGGAA , value?
output: 0.114 E-score

input: Checklist item: binding signal tested on GST-ANAC092(1-176) (Arabidopsis thaliana, UniProt Q9FKA0 1-176), entry ACAAGTCA , value?
output: 0.0976 E-score

input: Checklist item: binding signal tested on GST-ANAC092(1-176) (Arabidopsis thaliana, UniProt Q9FKA0 1-176), entry GAAGGAAC , value?
output: 0.189 E-score

input: Checklist item: binding signal tested on GST-ANAC092(1-176) (Arabidopsis thaliana, UniProt Q9FKA0 1-176), entry GACGCAAA , value?
output: 0.382 E-score

input: Checklist item: binding signal tested on GST-ANAC092(1-176) (Arabidopsis thaliana, UniProt Q9FKA0 1-176), entry ACACGACT , value?
output: 0.104 E-score

input: Checklist item: binding signal tested on GST-ANAC092(1-176) (Arabidopsis thaliana, UniProt Q9FKA0 1-176), entry ACGTCACC , value?
output: 0.452 E-score

input: Checklist item: binding signal tested on GST-ANAC092(1-176) (Arabidopsis thaliana, UniProt Q9FKA0 1-176), entry GAAGGAAA , value?
output: 0.243 E-score

input: Checklist item: binding signal tested on GST-ANAC092(1-176) (Arabidopsis thaliana, UniProt Q9FKA0 1-176), entry TATACGCA , value?
output: 0.311 E-score

input: Checklist item: binding signal tested on GST-ANAC092(1-176) (Arabidopsis thaliana, UniProt Q9FKA0 1-176), entry GGTCAACC , value?
output: 0.144 E-score

input: Checklist item: binding signal tested on GST-ANAC092(1-176) (Arabidopsis thaliana, UniProt Q9FKA0 1-176), entry TGGTCAAA , value?
output: 0.0858 E-score

input: Checklist item: binding signal tested on GST-ANAC092(1-176) (Arabidopsis thaliana, UniProt Q9FKA0 1-176), entry GGAGGAAA , value?
output: 0.124 E-score

input: Checklist item: binding signal tested on GST-ANAC092(1-176) (Arabidopsis thaliana, UniProt Q9FKA0 1-176), entry CTTACGTA , value?
output: 0.423 E-score

input: Checklist item: binding signal tested on GST-ANAC092(1-176) (Arabidopsis thaliana, UniProt Q9FKA0 1-176), entry CAAAAGTC , value?
output: 0.0755 E-score

input: Checklist item: binding signal tested on GST-ANAC092(1-176) (Arabidopsis thaliana, UniProt Q9FKA0 1-176), entry CTTACTTA , value?
output: 0.205 E-score

input: Checklist item: binding signal tested on GST-ANAC092(1-176) (Arabidopsis thaliana, UniProt Q9FKA0 1-176), entry ATTACGTA , value?
output: 0.459 E-score

input: Checklist item: binding signal tested on GST-ANAC092(1-176) (Arabidopsis thaliana, UniProt Q9FKA0 1-176), entry GTAGCGTA , value?
output: 0.427 E-score

input: Checklist item: binding signal tested on GST-ANAC092(1-176) (Arabidopsis thaliana, UniProt Q9FKA0 1-176), entry CTACGTTA , value?
output: 0.323 E-score

input: Checklist item: binding signal tested on GST-ANAC092(1-176) (Arabidopsis thaliana, UniProt Q9FKA0 1-176), entry AAGTTACC , value?
output: 0.365 E-score

input: Checklist item: binding signal tested on GST-ANAC092(1-176) (Arabidopsis thaliana, UniProt Q9FKA0 1-176), entry GTAACGTA , value?
output: 0.451 E-score

input: Checklist item: binding signal tested on GST-ANAC092(1-176) (Arabidopsis thaliana, UniProt Q9FKA0 1-176), entry ACACGACA , value?
output: 0.421 E-score

input: Checklist item: binding signal tested on GST-ANAC092(1-176) (Arabidopsis thaliana, UniProt Q9FKA0 1-176), entry AAAGTCAG , value?
output: 0.1 E-score

input: Checklist item: binding signal tested on GST-ANAC092(1-176) (Arabidopsis thaliana, UniProt Q9FKA0 1-176), entry AGAAGGAA , value?
output: 0.192 E-score

input: Checklist item: binding signal tested on GST-ANAC092(1-176) (Arabidopsis thaliana, UniProt Q9FKA0 1-176), entry AATGCGTG , value?
output: 0.434 E-score

input: Checklist item: binding signal tested on GST-ANAC092(1-176) (Arabidopsis thaliana, UniProt Q9FKA0 1-176), entry ACGTTTCC , value?
output: 0.411 E-score

input: Checklist item: binding signal tested on GST-ANAC092(1-176) (Arabidopsis thaliana, UniProt Q9FKA0 1-176), entry GTAAGGAA , value?
output: 0.259 E-score

input: Checklist item: binding signal tested on GST-ANAC092(1-176) (Arabidopsis thaliana, UniProt Q9FKA0 1-176), entry TAGCGTAA , value?
output: 0.453 E-score

input: Checklist item: binding signal tested on GST-ANAC092(1-176) (Arabidopsis thaliana, UniProt Q9FKA0 1-176), entry CTAAGGAA , value?
output: 0.125 E-score

input: Checklist item: binding signal tested on GST-ANAC092(1-176) (Arabidopsis thaliana, UniProt Q9FKA0 1-176), entry CACGGAAC , value?
output: 0.397 E-score

input: Checklist item: binding signal tested on GST-ANAC092(1-176) (Arabidopsis thaliana, UniProt Q9FKA0 1-176), entry GTACGAAA , value?
output: 0.38 E-score

input: Checklist item: binding signal tested on GST-ANAC092(1-176) (Arabidopsis thaliana, UniProt Q9FKA0 1-176), entry GTAAGTAA , value?
output: 0.246 E-score

input: Checklist item: binding signal tested on GST-ANAC092(1-176) (Arabidopsis thaliana, UniProt Q9FKA0 1-176), entry ATACGCCA , value?
output: 0.455 E-score

input: Checklist item: binding signal tested on GST-ANAC092(1-176) (Arabidopsis thaliana, UniProt Q9FKA0 1-176), entry CACGCTAG , value?
output: 0.389 E-score

input: Checklist item: binding signal tested on GST-ANAC092(1-176) (Arabidopsis thaliana, UniProt Q9FKA0 1-176), entry TAAGCAAA , value?
output: 0.201 E-score

input: Checklist item: binding signal tested on GST-ANAC092(1-176) (Arabidopsis thaliana, UniProt Q9FKA0 1-176), entry CACGTTAG , value?
output: 0.387 E-score

input: Checklist item: binding signal tested on GST-ANAC092(1-176) (Arabidopsis thaliana, UniProt Q9FKA0 1-176), entry CAGGGAAA , value?
output: 0.141 E-score

input: Checklist item: binding signal tested on GST-ANAC092(1-176) (Arabidopsis thaliana, UniProt Q9FKA0 1-176), entry CTTACTTC , value?
output: 0.272 E-score

input: Checklist item: binding signal tested on GST-ANAC092(1-176) (Arabidopsis thaliana, UniProt Q9FKA0 1-176), entry TGACCAAA , value?
output: 0.0758 E-score

input: Checklist item: binding signal tested on GST-ANAC092(1-176) (Arabidopsis thaliana, UniProt Q9FKA0 1-176), entry GCACTCAA , value?
output: 0.391 E-score

input: Checklist item: binding signal tested on GST-ANAC092(1-176) (Arabidopsis thaliana, UniProt Q9FKA0 1-176), entry ACGCCAAC , value?
output: 0.404 E-score

input: Checklist item: binding signal tested on GST-ANAC092(1-176) (Arabidopsis thaliana, UniProt Q9FKA0 1-176), entry AGTTACGC , value?
output: 0.273 E-score

input: Checklist item: binding signal tested on GST-ANAC092(1-176) (Arabidopsis thaliana, UniProt Q9FKA0 1-176), entry ACTAGTCA , value?
output: 0.0862 E-score

input: Checklist item: binding signal tested on GST-ANAC092(1-176) (Arabidopsis thaliana, UniProt Q9FKA0 1-176), entry CTAGCGTA , value?
output: 0.262 E-score

input: Checklist item: binding signal tested on GST-ANAC092(1-176) (Arabidopsis thaliana, UniProt Q9FKA0 1-176), entry GTTAAGGA , value?
output: 0.116 E-score
